test: Half life in beagle dog at 0.2 mg/kg, iv; format: ADME, organism-based, Canis lupus familiaris; details: in vivo
ATTRIBUTE MEASURED: half-life (h)

1. C[C@H](c1ccc(F)cc1)N(Cc1cccc(C(=O)O)c1)C(=O)c1cnc2ccccc2c1    3.9

---

test: Efflux ratio in MDCK cells; type: ADME, cell-based, Canis lupus familiaris; conditions: dog
ATTRIBUTE MEASURED: efflux ratio

1. C[C@H](c1ccc(F)cc1)N(Cc1cccc(C(=O)O)c1)C(=O)c1cnc2ccccc2c1    4.8

---

test: Lipophilicity, log D of the compound; type: physicochemical; conditions: octanol/water
ATTRIBUTE MEASURED: logD

1. C[C@H](c1ccc(F)cc1)N(Cc1cccc(C(=O)O)c1)C(=O)c1cn2ccccc2n1    0.6
2. C[C@H](c1ccc(F)cc1)N(Cc1cccc(C(=O)O)c1)C(=O)c1cnc2ccccc2c1    1
3. C[C@H](c1ccc(F)cc1)N(Cc1cccc(C(=O)O)c1)C(=O)c1cc2ccccc2cn1    1.1
4. C[C@H](c1ccc(F)cc1)N(Cc1cccc(C(=O)O)c1)C(=O)c1cc2ccccn2n1    0.9
5. C[C@H](c1ccc(F)cc1F)N(Cc1cccc(C(=O)O)c1)C(=O)c1cc2ccccc2cn1    1.1
6. C[C@H](c1cccc(Cl)c1)N(Cc1cccc(C(=O)O)c1)C(=O)c1cnc2ccccc2c1    1.5
7. C[C@H](c1ccc(F)cc1F)N(Cc1cccc(C(=O)O)n1)C(=O)c1cc2ccccc2cn1    0.4
8. C[C@H](c1ccc(F)cc1F)N(Cc1cccc(C(=O)O)c1)C(=O)c1cc2ccccn2n1    0.9
9. CC[C@H](c1ccc(F)cc1F)N(Cc1cccc(C(=O)O)c1)C(=O)c1cc2ccccn2n1    1.2
10. CC[C@H](c1ccc(F)cc1)N(Cc1cccc(C(=O)O)c1)C(=O)c1cnc2ccccc2c1    1.3

---

test: Fraction unbound in human plasma; format: ADME, cell-free
ATTRIBUTE MEASURED: fraction unbound

1. C[C@H](c1ccc(F)cc1)N(Cc1cccc(C(=O)O)c1)C(=O)c1cnc2ccccc2c1 [PF-05105679]    0.012

---

experiment: Clearance in rat; type: ADME, organism-based; settings: in vivo
ATTRIBUTE MEASURED: clearance

1) C[C@H](c1ccc(F)cc1)N(Cc1cccc(C(=O)O)c1)C(=O)c1cnc2ccccc2c1 [PF-05105679]    19.8 mL/min/kg

---

molecular target: Voltage-gated inwardly rectifying potassium channel KCNH2 (Homo sapiens, UniProt Q12809)
Sequence (Q12809 whole entry): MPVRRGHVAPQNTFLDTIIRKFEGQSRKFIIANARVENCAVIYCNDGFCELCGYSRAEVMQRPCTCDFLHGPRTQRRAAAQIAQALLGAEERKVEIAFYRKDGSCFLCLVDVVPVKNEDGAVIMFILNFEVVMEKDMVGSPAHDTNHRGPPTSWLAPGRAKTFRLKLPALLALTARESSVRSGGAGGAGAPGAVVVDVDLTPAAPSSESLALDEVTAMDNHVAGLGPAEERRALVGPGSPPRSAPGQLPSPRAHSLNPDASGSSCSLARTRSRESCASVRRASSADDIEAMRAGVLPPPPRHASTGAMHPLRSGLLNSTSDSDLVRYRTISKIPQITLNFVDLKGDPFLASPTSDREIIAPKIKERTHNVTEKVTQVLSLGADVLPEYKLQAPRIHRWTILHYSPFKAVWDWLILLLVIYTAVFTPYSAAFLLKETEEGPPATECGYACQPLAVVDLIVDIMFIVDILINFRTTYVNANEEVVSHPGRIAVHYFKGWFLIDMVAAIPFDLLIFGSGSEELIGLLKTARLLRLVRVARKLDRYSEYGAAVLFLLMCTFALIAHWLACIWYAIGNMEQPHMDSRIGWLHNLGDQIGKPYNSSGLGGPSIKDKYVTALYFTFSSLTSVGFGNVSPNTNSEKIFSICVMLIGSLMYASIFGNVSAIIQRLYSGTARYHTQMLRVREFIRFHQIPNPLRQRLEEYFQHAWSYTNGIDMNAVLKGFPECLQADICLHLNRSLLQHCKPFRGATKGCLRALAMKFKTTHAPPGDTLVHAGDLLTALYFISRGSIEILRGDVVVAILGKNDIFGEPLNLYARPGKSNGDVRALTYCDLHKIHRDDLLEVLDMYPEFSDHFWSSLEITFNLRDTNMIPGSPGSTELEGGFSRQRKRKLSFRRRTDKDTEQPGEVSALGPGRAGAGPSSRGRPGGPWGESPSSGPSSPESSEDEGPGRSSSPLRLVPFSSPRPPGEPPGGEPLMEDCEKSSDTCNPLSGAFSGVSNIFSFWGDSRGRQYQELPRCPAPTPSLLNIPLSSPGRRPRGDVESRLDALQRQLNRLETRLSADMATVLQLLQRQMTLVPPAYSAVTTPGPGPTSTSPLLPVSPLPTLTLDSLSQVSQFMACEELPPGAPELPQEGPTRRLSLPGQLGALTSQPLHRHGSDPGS
Listing of recorded Ki by entry.
ATTRIBUTE MEASURED: Ki

1) CC[C@H](c1ccc(F)cc1)N(Cc1cccc(C(=O)O)c1)C(=O)c1cnc2ccccc2c1    > 15.2 µM
2) C[C@H](c1ccc(F)cc1)N(Cc1cccc(C(=O)O)c1)C(=O)c1cc2ccccn2n1    > 9.18 µM
3) C[C@H](c1ccc(F)cc1)N(Cc1cccc(C(=O)O)c1)C(=O)c1cn2ccccc2n1    > 9.18 µM
4) C[C@H](c1ccc(F)cc1)N(Cc1cccc(C(=O)O)c1)C(=O)c1cnc2ccccc2c1    > 15.9 µM
5) C[C@H](c1ccc(F)cc1)N(Cc1cccc(C(=O)O)c1)C(=O)c1cc2ccccc2cn1    > 9.18 µM

---

assay: Oral absorption in beagle dog at 20 mg/kg; type: ADME, organism-based, Canis lupus familiaris; details: in vivo
ATTRIBUTE MEASURED: Fa (%)

1) C[C@H](c1ccc(F)cc1)N(Cc1cccc(C(=O)O)c1)C(=O)c1cnc2ccccc2c1    100
